Sourced from ChEMBL document CHEMBL5696443

Biological target: Testis-specific serine/threonine-protein kinase 2 (Homo sapiens)
Sequence (Q96PF2 whole entry): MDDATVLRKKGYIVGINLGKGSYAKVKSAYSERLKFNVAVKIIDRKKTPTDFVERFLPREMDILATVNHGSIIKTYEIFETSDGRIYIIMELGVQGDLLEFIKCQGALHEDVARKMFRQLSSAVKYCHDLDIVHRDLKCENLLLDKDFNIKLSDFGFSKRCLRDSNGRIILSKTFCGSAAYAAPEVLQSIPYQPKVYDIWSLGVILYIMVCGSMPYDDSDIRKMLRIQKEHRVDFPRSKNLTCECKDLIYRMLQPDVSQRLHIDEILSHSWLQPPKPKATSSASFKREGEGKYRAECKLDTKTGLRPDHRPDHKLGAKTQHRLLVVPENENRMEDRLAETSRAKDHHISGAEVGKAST
test-readout: IC50 (µM)

{"columns": ["compound", "test-readout", "meas-value"],
 "data": [
  ["COc1cc(N2CCC(N3CCN(C)CC3)CC2)ccc1Nc1ncc(Cl)c(Nc2ccccc2P(C)(C)=O)n1 [BRIGATINIB]", "IC50", 0.138]
]}
